assaySystem: Gastrin receptor (Cavia porcellus, UniProt H0VZC5)
Construct: The fundic mucosa is gently scraped off the submucosa
Sequence (H0VZC5 1-426): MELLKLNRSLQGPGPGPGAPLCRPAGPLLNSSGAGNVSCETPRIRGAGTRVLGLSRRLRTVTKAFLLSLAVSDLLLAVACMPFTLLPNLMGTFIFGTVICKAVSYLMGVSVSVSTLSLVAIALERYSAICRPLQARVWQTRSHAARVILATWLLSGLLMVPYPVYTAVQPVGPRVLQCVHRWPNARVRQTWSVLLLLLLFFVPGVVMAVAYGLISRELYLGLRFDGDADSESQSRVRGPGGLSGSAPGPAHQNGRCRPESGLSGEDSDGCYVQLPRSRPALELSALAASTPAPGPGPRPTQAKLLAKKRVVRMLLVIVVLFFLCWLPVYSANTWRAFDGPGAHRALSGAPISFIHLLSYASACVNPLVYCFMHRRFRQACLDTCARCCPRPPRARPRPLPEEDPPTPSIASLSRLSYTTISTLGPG
testDetails: Gastrin receptor binding assay (displacement of 125I-(Leu-15)-Gastrin from guinea pig fundic glands)
runConditions: guinea pig fundic mucosa glands, 25° C., 30 min, read-out: In vitro Binding Data IC50 Gastrin
pIC50: −log10 of the molar value.
measurementKind: pIC50

Please review the entries below; each comes with its answer.
CCOC(=O)c1cccc(NC(=O)[C@H]2Cc3c([nH]c4ccccc34)CN2C(=O)OCc2ccccc2)c1 :: < 3.52
Cc1cccc(NC(=O)N2Cc3[nH]c4ccccc4c3C[C@H]2C(=O)N[C@H](CC(C)C)C(=O)N[C@@H](CC(=O)O)C(N)=O)c1 :: < 4.52

API: the following record is the query input.
IN: So what's the measured pIC50 for this one? NC(=O)[C@H](CC(=O)O)NC(=O)[C@@H]1Cc2c([nH]c3ccccc23)CN1
OUT: < 3.52
